- Tested target: RORγt-LBD (Homo sapiens, UniProt P51449)
- Sequence (P51449 269-508 limits assumed, species assumed): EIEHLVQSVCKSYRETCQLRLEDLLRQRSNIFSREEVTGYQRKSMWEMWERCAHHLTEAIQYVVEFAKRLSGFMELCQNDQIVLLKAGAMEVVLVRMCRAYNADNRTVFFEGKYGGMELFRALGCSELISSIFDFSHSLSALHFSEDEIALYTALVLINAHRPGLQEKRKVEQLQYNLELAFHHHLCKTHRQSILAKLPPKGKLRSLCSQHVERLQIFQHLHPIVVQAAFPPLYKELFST
- Assay explanation: Time-resolved fluorescence resonance energy-transfer assay (TR-FRET), co-activator peptide recruitment
- Assay type: biochemical
- Design: unit not given here
- Condition parameters: upper activation limit; His-RORγt-LBD, SRC peptide
Reported metric: TR-FRET Biochemical Amax
Number only, please.

Known TR-FRET Biochemical Amax results, listed for orientation:
Quick note, TR-FRET Biochemical Amax for `C/C(=C\c1ccc2c(c1)N(S(=O)(=O)c1cccc(C(F)(F)F)c1)C[C@@H]1CN(C(C)(C)C(=O)OC(C)(C)C)CCN21)c1c(F)cccc1Cl` landed at 0.55

Reported TR-FRET Biochemical Amax of `C/C(=C\c1ccc2c(c1)N(S(=O)(=O)c1cccc(C(F)(F)F)c1)C[C@@H]1CN(C(CO)CO)CCN21)c1c(F)cccc1Cl` : 1.05

---
Input `CCOC(=O)C(=O)N1CCN2c3ccc(/C=C/c4c(Cl)cccc4C(F)(F)F)cc3N(S(=O)(=O)c3cccc(C(F)(F)F)c3)C[C@@H]2C1` . Output TR-FRET Biochemical Amax: 0.79

// field: TR-FRET Biochemical Amax; key: `O=S(=O)(c1cc(C(F)(F)F)cnc1OCCO)N1C[C@@H]2CNCCN2c2ccc(-c3cc(F)cc(OC(F)F)c3)cc21` ; value = 0.96
